Reported TD50 values are given for each entry in this list.
- Tested on: RD cells
- protocol: Detection of cytotoxicity in RD cells (CellTiter-Glo)
- Assay type: cell-based
- assay.conditions: 4 days, CellTiter-Glo, median toxic dose
Entry rule: numbers only, all in µM.

Known TD50 results, listed for orientation:
O=C1Cc2cc(-c3ccc4ncc5ccc(=O)n(-c6cccc(C(F)(F)F)c6)c5c4c3)ccc2N1 10.27
Nc1cncc(Nc2ccc3ncc4ccc(=O)n(-c5cccc(C(F)(F)F)c5)c4c3c2)n1 8.67
C=CCNc1ccc(-c2ccc3ncc4ccc(=O)n(-c5cccc(C(F)(F)F)c5)c4c3c2)cn1 0.23
Cc1ccc(Nc2ccc3ncc4ccc(=O)n(-c5cccc(C(F)(F)F)c5)c4c3c2)cc1C 6.81
O=c1ccc2cnc3ccc(Nc4ccc(C(F)(F)F)cc4)cc3c2n1-c1cccc(C(F)(F)F)c1 7.06
CC(C)(C)c1ccc(Nc2ccc3ncc4ccc(=O)n(-c5cccc(C(F)(F)F)c5)c4c3c2)cc1 7.04

Would you kindly look at the next entry?
Result for "COC(=O)/C=C/c1ccc2ncc3oc(=O)n(-c4cccc(C(F)(F)F)c4)c3c2c1" , tested on RD cells, TD50: 71.99

* * *

Form: system (mTOR kinase (Homo sapiens, UniProt P42345)), quantity (IC50), values below.
Entry rule: numbers only, all in nM.

Known IC50 results, listed for orientation:
O=c1ccc2cnc3ccc(-c4ccc(F)nc4)cc3c2n1-c1cccc(C(F)(F)F)c1 28.8
O=c1ccc2cnc3ccc(-c4cc[nH]n4)cc3c2n1-c1cccc(C(F)(F)F)c1 159
COc1cc(-c2ccc3ncc4ccc(=O)n(-c5cccc(C(F)(F)F)c5)c4c3c2)cnc1N 7.58
CC(C)(C)OC(=O)Nc1ccc(-c2ccc3ncc4ccc(=O)n(-c5cccc(C(F)(F)F)c5)c4c3c2)cn1 11.9
COc1ncc(-c2ccc3ncc4ccc(=O)n(-c5cccc(C(F)(F)F)c5)c4c3c2)cn1 4.82

Entry under test: "O=C(Nc1ccc(-c2ccc3ncc4ccc(=O)n(-c5cccc(C(F)(F)F)c5)c4c3c2)cn1)Oc1ccccc1" . Its IC50 was 25

Entry under test: "COc1ccc(CC(=O)Nc2ccc(-c3ccc4ncc5ccc(=O)n(-c6cccc(C(F)(F)F)c6)c5c4c3)cn2)cc1" . Its IC50 was 32.5

Entry under test: "NC(=O)/C=C/c1ccc2ncc3oc(=O)n(-c4cccc(C(F)(F)F)c4)c3c2c1" . Its IC50 was 47.6

Entry under test: "O=C(Nc1ccc(-c2ccc3ncc4ccc(=O)n(-c5cccc(C(F)(F)F)c5)c4c3c2)cn1)OCc1ccccc1" . Its IC50 was 306

Entry under test: "COc1ncccc1-c1ccc2ncc3ccc(=O)n(-c4cccc(C(F)(F)F)c4)c3c2c1" . Its IC50 was 974

Entry under test: "CCC(=O)Nc1ccc(-c2ccc3ncc4ccc(=O)n(-c5cccc(C(F)(F)F)c5)c4c3c2)cn1" . Its IC50 was 29.2

* * *

readout.kind: melting point

CC(=O)Nc1ccc(Nc2ccc3ncc4ccc(=O)n(-c5cccc(C(F)(F)F)c5)c4c3c2)cc1 175 to 177 °C
CC(=O)/C=C/c1cnc2ccc(-c3ccc(N)cc3)cc2c1Nc1cccc(C(F)(F)F)c1 183 to 185 °C
COC(=O)/C=C/c1ccc2ncc3oc(=O)n(-c4cccc(C(F)(F)F)c4)c3c2c1 243 to 245 °C
CC(=O)/C=C/c1cnc2ccc(-c3ccc(O)cc3)cc2c1Nc1cccc(C(F)(F)F)c1 218 to 222 °C
Cc1ccc(-c2ccc3ncc4oc(=O)n(-c5cccc(C(F)(F)F)c5)c4c3c2)cn1 299 to 300 °C

Entry under test: "O=c1ccc2cnc3ccc(-c4cc[nH]n4)cc3c2n1-c1cccc(C(F)(F)F)c1" . Its melting point was 283 to 286 °C

Entry under test: "O=c1ccc2cnc3ccc(C4=CCC5(CC4)OCCO5)cc3c2n1-c1cccc(C(F)(F)F)c1" . Its melting point was 210 to 211 °C

Entry under test: "CC(=O)/C=C/c1cnc2ccc(-c3cnc4ccccc4c3)cc2c1Nc1cccc(C(F)(F)F)c1" . Its melting point was 173 to 176 °C

Entry under test: "N#C/C=C/c1ccc2ncc3oc(=O)n(-c4cccc(C(F)(F)F)c4)c3c2c1" . Its melting point was 235 to 237 °C

* * *

- protocol: In vivo drug metabolism (pharmacokinetics) in mice, iv and po
- Design: species or system C57 male mice
- assay.conditions: male, mouse, plasma; iv 1 mg/kg, C57 mice; read-out: Vss iv
readout.kind: Vd (L/kg)
Entry rule: numbers only, all in L/kg.

COc1ccc(-c2ccc3ncc4ccc(=O)n(-c5cccc(C(F)(F)F)c5)c4c3c2)cn1 3.24

Entry under test: "O=c1ccc2cnc3ccc(-c4ccc(F)nc4)cc3c2n1-c1cccc(C(F)(F)F)c1" . Its Vd was 2.29

Entry under test: "CN1CCN(c2ccc(-c3ccc4ncc5ccc(=O)n(-c6cccc(C(F)(F)F)c6)c5c4c3)cn2)CC1" . Its Vd was 3.59

Entry under test: "CCC(=O)Nc1ccc(-c2ccc3ncc4ccc(=O)n(-c5cccc(C(F)(F)F)c5)c4c3c2)cn1" . Its Vd was 3.25

Entry under test: "O=c1ccc2cnc3ccc(-c4cccnc4F)cc3c2n1-c1cccc(C(F)(F)F)c1" . Its Vd was 1.59

* * *

Form: system (mTOR kinase (Homo sapiens, UniProt P42345)), quantity (IC50), values below.
Entry rule: numbers only, all in nM.

Known IC50 results, listed for orientation:
molecule	IC50 / nM
CN(C)c1ccc(-c2ccc3ncc4ccc(=O)n(-c5cccc(C(F)(F)F)c5)c4c3c2)cn1 [HTL-7-16]	8.91
O=c1ccc2cnc3ccc(-c4ccc(N5CCCC5)nc4)cc3c2n1-c1cccc(C(F)(F)F)c1 [HTL-7-20]	11.3

Result for NC(=O)NC/C=C/c1ccc2ncc3oc(=O)n(-c4cccc(C(F)(F)F)c4)c3c2c1 [HTL-6-34] , tested on mTOR kinase (Homo sapiens, UniProt P42345), IC50: 849

Result for Nc1cccc(Nc2ccc3ncc4ccc(=O)n(-c5cccc(C(F)(F)F)c5)c4c3c2)c1 [HTL-6-11] , tested on mTOR kinase (Homo sapiens, UniProt P42345), IC50: 255

Result for O=c1ccc2cnc3ccc(-c4ccc5ncccc5c4)cc3c2n1-c1cccc(C(F)(F)F)c1 [HTL-6-47] , tested on mTOR kinase (Homo sapiens, UniProt P42345), IC50: 6.17

Result for O=C1Cc2cc(-c3ccc4ncc5ccc(=O)n(-c6cccc(C(F)(F)F)c6)c5c4c3)ccc2N1 [HTL-7-04] , tested on mTOR kinase (Homo sapiens, UniProt P42345), IC50: 240

Result for CCCCC(=O)Nc1ccc(-c2ccc3ncc4ccc(=O)n(-c5cccc(C(F)(F)F)c5)c4c3c2)cn1 [HTL-7-08] , tested on mTOR kinase (Homo sapiens, UniProt P42345), IC50: 76.6

Result for COc1ccc(-c2ccc3ncc4ccc(=O)n(-c5cccc(C(F)(F)F)c5)c4c3c2)cn1 [HTL-7-03] , tested on mTOR kinase (Homo sapiens, UniProt P42345), IC50: 7.25

* * *

- Test system: RD cells
- protocol: Detection of cytotoxicity in RD cells (CellTiter-Glo)
- Format: cell-based
- assay.conditions: 4 days, CellTiter-Glo, median toxic dose
readout.kind: log10(TD50) (log10 of the value in µM)
Form field - Quantity: TD50; Unit: µM; Scale: log10

Known log10(TD50) results, listed for orientation:
compound	readout.kind	readout.number
NC(=O)/C=C/c1ccc2ncc3oc(=O)n(-c4cccc(C(F)(F)F)c4)c3c2c1 [HTL-6-30]	log10(TD50)	0.85
CC(=O)/C=C/c1cnc2ccc(-c3ccc(F)cc3F)cc2c1Nc1cccc(C(F)(F)F)c1 [HTL-3-33]	log10(TD50)	-0.14
Nc1cccc(Nc2ccc3ncc4ccc(=O)n(-c5cccc(C(F)(F)F)c5)c4c3c2)n1 [HTL-6-12]	log10(TD50)	0.72
CC(=O)/C=C/c1cnc2ccc(-c3ccc(F)c(F)c3)cc2c1Nc1cccc(C(F)(F)F)c1 [HTL-3-34]	log10(TD50)	0.48

Entry under test: CCCc1ccc(-c2ccc3ncc(/C=C/C(C)=O)c(Nc4cccc(C(F)(F)F)c4)c3c2)cc1 [HTL-3-40] . Its log10(TD50) was -0.08

Entry under test: Nc1cncc(Nc2ccc3ncc4ccc(=O)n(-c5cccc(C(F)(F)F)c5)c4c3c2)c1 [HTL-6-29] . Its log10(TD50) was 1.46

Entry under test: O=c1ccc2cnc3ccc(Nc4ccc(Cl)cc4)cc3c2n1-c1cccc(C(F)(F)F)c1 [HTL-6-25] . Its log10(TD50) was 0.66

Entry under test: CCCCC(=O)Nc1ccc(-c2ccc3ncc4oc(=O)n(-c5cccc(C(F)(F)F)c5)c4c3c2)cn1 [WSX-1-24] . Its log10(TD50) was 0.63

Entry under test: CCCC(=O)Nc1ccc(-c2ccc3ncc4ccc(=O)n(-c5cccc(C(F)(F)F)c5)c4c3c2)cn1 [HTL-7-05] . Its log10(TD50) was -0.12

Entry under test: CC(=O)/C=C/c1cnc2ccc(-c3ccc(C(N)=O)cc3)cc2c1Nc1cccc(C(F)(F)F)c1 [HTL-3-45] . Its log10(TD50) was 0.38

Entry under test: COc1ncc(-c2ccc3ncc4ccc(=O)n(-c5cccc(C(F)(F)F)c5)c4c3c2)cn1 [HTL-7-06] . Its log10(TD50) was -0.77

Entry under test: CC(C)(C)OC(=O)/C=C/c1ccc2ncc3oc(=O)n(-c4cccc(C(F)(F)F)c4)c3c2c1 [HTL-6-35] . Its log10(TD50) was 1.88

Measured values drawn from patent US20220220106A1 for this set.
